- test-target: Human TRPC6 (Homo sapiens, UniProt Q9Y210)
- Construct: expressed in transfected cells
- Sequence (Q9Y210 whole entry): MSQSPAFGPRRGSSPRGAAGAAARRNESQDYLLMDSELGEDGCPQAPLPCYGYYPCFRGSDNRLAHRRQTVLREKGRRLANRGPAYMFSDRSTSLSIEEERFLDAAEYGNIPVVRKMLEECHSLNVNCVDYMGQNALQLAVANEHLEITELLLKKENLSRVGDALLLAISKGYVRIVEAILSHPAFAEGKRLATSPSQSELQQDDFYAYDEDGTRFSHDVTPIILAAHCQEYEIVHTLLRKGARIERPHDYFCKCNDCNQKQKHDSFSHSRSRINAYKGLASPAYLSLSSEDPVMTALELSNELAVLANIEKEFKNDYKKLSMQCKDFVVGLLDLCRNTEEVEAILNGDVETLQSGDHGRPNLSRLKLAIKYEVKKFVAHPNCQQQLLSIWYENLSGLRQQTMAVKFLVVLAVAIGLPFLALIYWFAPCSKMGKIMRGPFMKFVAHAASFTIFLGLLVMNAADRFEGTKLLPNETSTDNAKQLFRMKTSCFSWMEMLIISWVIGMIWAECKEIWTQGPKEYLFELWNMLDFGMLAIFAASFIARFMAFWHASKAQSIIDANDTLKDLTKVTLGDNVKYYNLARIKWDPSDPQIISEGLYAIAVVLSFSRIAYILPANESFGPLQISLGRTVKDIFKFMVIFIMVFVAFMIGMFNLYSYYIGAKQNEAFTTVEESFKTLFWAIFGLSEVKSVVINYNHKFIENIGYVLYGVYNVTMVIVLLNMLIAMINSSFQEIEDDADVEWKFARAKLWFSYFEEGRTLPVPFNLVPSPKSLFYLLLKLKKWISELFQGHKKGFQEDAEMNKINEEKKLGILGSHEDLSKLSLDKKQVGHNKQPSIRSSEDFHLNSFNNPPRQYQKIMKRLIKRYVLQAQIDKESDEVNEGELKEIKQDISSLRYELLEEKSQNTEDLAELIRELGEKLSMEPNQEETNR
- test-name: Evaluation of TRPC6 channel inhibitory activity (1), FLIPR Calcium 5 Assay Kit, OAG stimulation (Compound Nos. 1-1293)
- Assay type: cell-based
- conditions: Human TRPC6 stably-expressing cells, OAG 30 μM, FLIPR Calcium 5 Assay Kit; read-out: Inhibitory activity (pIC50 class) (converted)
reported-metric: IC50

compound | IC50
Cn1nc(-c2ccccn2)cc1Oc1cc(C#N)ccc1-c1ccc(CN)n2cnnc12 [compound 589] | 0.01 to 1 µM
Cc1nc(Oc2cc(C#N)ccc2-c2ncc(CCN)cn2)cc(N2CCCCC2)n1 [compound 447] | < 0.01 µM
Cn1nc(C2CC2)cc1Oc1cc(C#N)ccc1-c1cccc(CN)n1 [compound 480] | > 1 µM
Cc1cc(Oc2cc(C#N)ccc2-c2ccc(CCN)cn2)cc(N2CCN(C)C(=O)C2)n1 [compound 464] | > 1 µM

Please give IC50 for each item listed below.
1. Cc1nc(Oc2cc(C#N)ccc2-c2ccc(N3CCN(C)CC3)cc2)cc(N2CCOCC2)n1 [Compound 10]
2. Cn1nc(-c2ccccc2)cc1Oc1cc(Cl)ncc1-c1ccc(CN)cn1 [compound 1291]
3. COCCN(C)c1cc(Oc2cc(C#N)ccc2-c2ncc(CN)cn2)nc(C)n1 [compound 797]
4. Cn1nc(C(C)(C)C)cc1C(O)c1cc(C#N)ccc1-c1ncc(CCN)cn1 (stereo not drawn) [compound 1235]
5. CC(C)COc1cc(Oc2cc(C#N)ccc2-c2ncc(CN)cn2)cnn1 [compound 819]

Key:
1. > 1 µM
2. > 1 µM
3. > 1 µM
4. 0.01 to 1 µM
5. 0.01 to 1 µM

I have 3 compounds here; please give me IC50 for each one.
1. COC(C)c1cn(Cc2cc(C#N)ccc2-c2ncc(CCN)cn2)c(C)n1 (stereo not drawn) [compound 1141]
2. Cc1cc(Oc2cc(C#N)ccc2-c2ccc(CCN)cc2)cc(N2CCOCC2)n1 [Compound 138]
3. Cc1nc(Oc2cc(C#N)ccc2-c2ncc([C@@H](F)CN)cn2)cc(N2CCOCC2)n1 [compound 878]

Key:
0.01 to 1 µM
< 0.01 µM
< 0.01 µM
